system: 317291-083-R-J1-PDC complex spheroid growth; assay: Anticancer human tumor 317291-083-R-J1-PDC patient-derived soft tissue sarcoma cell line growth inhibition [Asc]; conditions: curve of first compound; second compound 3 µM
pIC50: −log10 of the molar value.

COMPOUND	READING_QUALIFIER	pIC50
O=C(c1ccc(F)c(F)c1Nc1ccc(I)cc1F)N1CC(O)([C@@H]2CCCCN2)C1 + CCN1C(C(=O)NC23CCC(C(=O)O)(CC2)CC3)C(c2cccc(Cl)c2F)C2(C(=O)Nc3cc(Cl)ccc32)C12CCCCC2	=	6.41
Cc1nc(N2CCC3(CC2)COC(C)C3N)c(CO)nc1Sc1ccnc(N)c1Cl (centres undefined) + CCN1C(C(=O)NC23CCC(C(=O)O)(CC2)CC3)C(c2cccc(Cl)c2F)C2(C(=O)Nc3cc(Cl)ccc32)C12CCCCC2	=	5.56
C#Cc1c(F)ccc2cc(O)cc(-c3ncc4c(N5CC6CCC(C5)N6)nc(OCC56CCCN5CC(F)C6)nc4c3F)c12 (centres undefined) + CCN1C(C(=O)NC23CCC(C(=O)O)(CC2)CC3)C(c2cccc(Cl)c2F)C2(C(=O)Nc3cc(Cl)ccc32)C12CCCCC2	<	5.00
Cn1ncnc1[C@H]1c2n[nH]c(=O)c3cc(F)cc(c23)N[C@@H]1c1ccc(F)cc1 + CCN1C(C(=O)NC23CCC(C(=O)O)(CC2)CC3)C(c2cccc(Cl)c2F)C2(C(=O)Nc3cc(Cl)ccc32)C12CCCCC2	<	7.00

----------
test system: 317291-083-R-J1-PDC complex spheroid growth; test: Anticancer human tumor 317291-083-R-J1-PDC cell line growth inhibition [Asc]; conditions: second compound 0.949 µM; first compound 0.0316 µM; stronger effect = lower value;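 further: compound exposure lasted seven days after spheroids formed for three days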;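 on viability, T/C: 100% = DMSO vehicle control wells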
Doc: threshold 90% (exclusive). Items with viability, T/C beneath it return yes; others return no.

MOLECULE	CAT
C#Cc1c(F)ccc2cc(O)cc(-c3ncc4c(N5CC6CCC(C5)N6)nc(OCC56CCCN5CC(F)C6)nc4c3F)c12 (stereo not drawn) + CCN1C(C(=O)NC23CCC(C(=O)O)(CC2)CC3)C(c2cccc(Cl)c2F)C2(C(=O)Nc3cc(Cl)ccc32)C12CCCCC2	no
C=C(F)C(=O)N1CCN(c2nc(OCC3CCCN3C)nc3c2CCN(c2cccc4cccc(Cl)c24)C3)CC1CC#N (stereo not drawn) + CCN1C(C(=O)NC23CCC(C(=O)O)(CC2)CC3)C(c2cccc(Cl)c2F)C2(C(=O)Nc3cc(Cl)ccc32)C12CCCCC2	no
CCN1CCN(Cc2ccc(Nc3ncc(F)c(-c4cc(F)c5nc(C)n(C(C)C)c5c4)n3)nc2)CC1 + CCN1C(C(=O)NC23CCC(C(=O)O)(CC2)CC3)C(c2cccc(Cl)c2F)C2(C(=O)Nc3cc(Cl)ccc32)C12CCCCC2	yes
O=C(c1cc(Cc2n[nH]c(=O)c3ccccc23)ccc1F)N1CCN(C(=O)C2CC2)CC1 + CCN1C(C(=O)NC23CCC(C(=O)O)(CC2)CC3)C(c2cccc(Cl)c2F)C2(C(=O)Nc3cc(Cl)ccc32)C12CCCCC2	no
CNC(C)C(=O)NC1CN(S(=O)(=O)c2cccc(S(=O)(=O)N3CCC4CCC(C(=O)NC(c5ccccc5)c5ccccc5)N4C(=O)C(NC(=O)C(C)NC)C3)c2)CCC2CCC(C(=O)NC(c3ccccc3)c3ccccc3)N2C1=O (stereo not drawn) + CCN1C(C(=O)NC23CCC(C(=O)O)(CC2)CC3)C(c2cccc(Cl)c2F)C2(C(=O)Nc3cc(Cl)ccc32)C12CCCCC2	yes
NC1CCC(NC2CC2c2ccccc2)CC1 (stereo not drawn) + CCN1C(C(=O)NC23CCC(C(=O)O)(CC2)CC3)C(c2cccc(Cl)c2F)C2(C(=O)Nc3cc(Cl)ccc32)C12CCCCC2	no
COc1c(OCCCN2CCOCC2)ccc2c3n(c(=NC(=O)c4cnc(N)nc4)nc12)CCN3 + CCN1C(C(=O)NC23CCC(C(=O)O)(CC2)CC3)C(c2cccc(Cl)c2F)C2(C(=O)Nc3cc(Cl)ccc32)C12CCCCC2	yes
Cn1ncnc1[C@H]1c2n[nH]c(=O)c3cc(F)cc(c23)N[C@@H]1c1ccc(F)cc1 + CCN1C(C(=O)NC23CCC(C(=O)O)(CC2)CC3)C(c2cccc(Cl)c2F)C2(C(=O)Nc3cc(Cl)ccc32)C12CCCCC2	yes
